The reported numbers originate from PubChem BioAssay.

system: Sonic hedgehog protein (Shh); experiment: Sonic hedgehog microarray binding compounds – biochemical, small-molecule microarray, 635/667 nm fluorescence, primary screen (AID 1151); conditions: 635 nm fluorescence, higher = more signal;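 further: Shh protein binding to compounds spotted on small-molecule microarray slides; score combines spot fluorescence intensity with signal-to-noise across triplicate slides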
Property: composite z-score
Give your answer as a number; write no unit.

Recorded composite z-score for CC(=O)OCC1C2CC[C@H]3C(OCc4ccc(F)cc4C(F)(F)F)OC[C@]4(C)[C@H]3C2=C(CN4C(=O)OC(C)(C)C)[C@H](C)C1COC(C)=O (stereo not given in full) , please? -1.24

Consider the compound shown here: NC(=O)N1C(=O)C2C(C1=O)C1C=C(CCCO)C2C(c2ccc(CN3CCCC3)cc2)N1Cc1cc2c(cc1Br)OCO2 (stereo not given) What is its recorded composite z-score? 1.13

Using the record for "COCCOC(=O)N1C(=O)[C@@]2(c3cc(C#CCC(C(=O)OC)C(=O)OC)ccc31)[C@H](C(N)=O)[C@H]1C(=O)O[C@H](c3ccccc3)[C@H](c3ccccc3)N1[C@@H]2c1ccc(O)cc1" , report its composite z-score. 1.75

Request the reported composite z-score associated with "NC(=O)NCC#Cc1ccc2c(c1)[C@]1(C(=O)N2)[C@H](c2ccc(OCCO)cc2)N2[C@H](c3ccccc3)[C@H](c3ccccc3)OC(=O)[C@H]2[C@@H]1C(=O)O" -0.501

Find the recorded composite z-score belonging to CC1CC/C=C\[C@H]2OC34C=CCN(C(C)(C)C)C(=O)[C@H]3N(CCCO)C(=O)[C@@H]4C2C(=O)O1 (stereo not given in full) and report it. -0.757

====

assay: binders from COS7 lysate, DM2A8 probe, primary screen, torsin A project, cell lysate, small-molecule microarray, fluorescence 635/667 (AID 1065); details: higher = more signal, COS7 lysate expressing mutant human TOR1A
Property: composite z-score
// response body must contain only the number

Please give the measured composite z-score for this molecule: "CC(C)NC(=O)[C@@]1(C)c2ccccc2C(=O)N(Cc2ccccc2)[C@H]1c1ccc(CO)cc1" 0.824

# input molecule: "C[N+](C)(C)CCCC[C@@H]1NC(=O)[C@H]2C[C@@H](C(=O)NCCCCCNC(=O)CS)[C@@H](c3cccc(OCCO)c3)N2C1=O" ; wanted: its composite z-score 0.348

Given the entry C=CC1c2cc(O)c(OC)cc2CCN1C (configuration not stated) , report its measured composite z-score. -0.231

Find the recorded composite z-score belonging to "O=C1O[C@H](c2ccccc2)[C@H](c2ccccc2)N2[C@H]1[C@@H](C(=O)O)[C@]1(C(=O)Nc3ccc(C#CCCO)cc31)[C@H]2c1ccc(OCCO)cc1" and report it. 1.12

Please report the recorded composite z-score for "Cc1ccc(N2C(=O)c3ccccc3[C@](C)(C(=O)NCCCN(C)C)[C@@H]2c2ccc(CO)cc2)nc1" . -0.109

Please look up its composite z-score: "[N-]=[N+]=Nc1ccccc1[C@@H]1OC(c2ccc(OCCCO)cc2)=N[C@]1(Cc1ccccc1)C(=O)NCCN1CCOCC1" 2.32

So what's the measured composite z-score for this one? "CC(C)NC(=O)[C@@]1(c2ccc([N+](=O)[O-])cc2)CC(=O)N(CC23CC4CC(CC(C4)C2)C3)[C@@H]1c1ccc(CO)cc1" 0.522

====

molecular target: Torsin-1A (Homo sapiens); assay: TOR1A wild-type binding on microarray – cell lysate, small-molecule microarray, lysate, 635/667 nm, primary screen (AID 1149); conditions: COS7 hTOR1A-WT lysate, 635 nm fluorescence, higher = more signal
Quick rule: composite z-score of at least 0.2 means Condition met, below that means Condition not met.

Hi, just wondering whether "COC(=O)[C@@]1(Cc2ccccc2)[C@H]2c3cc(C(=O)N(C)C)n(CCSC(=N)N)c3C[C@H]2CN1C(=O)c1ccccc1" shows composite z-score of 0.2 or higher. Condition not met

Determine whether measured composite z-score meets or exceeds 0.2 for NC(=O)N1C(=O)C2C(C1=O)C1C=C(CCCO)C2C(c2ccc(CN3CCCC3)cc2)N1Cc1sc2ccccc2c1Cl (stereo not given) Condition not met

Say whether "CN(C)C(=O)[C@]1(Cc2ccccc2)N=C(c2ccc(OCCCO)cc2)O[C@@H]1c1ccccc1CN=[N+]=[N-]" shows composite z-score of 0.2 or more. Condition met

For this compound, is measured composite z-score 0.2 or higher? "Cc1ccc(F)cc1S(=O)(=O)N[C@H]1CCN(Cc2ccc(OC(C)C)cc2)C1" Condition not met

I'd appreciate it if you could say whether "C=CC[C@@]1(C(=O)OC)N=C(c2ccc(OCCCO)cc2)O[C@@H]1c1ccccc1N=[N+]=[N-]" has composite z-score at least equal to 0.2. Condition met

Please tell me: is the compound "COCCn1c(C(=O)N(C)C)cc2c1C[C@H]1CN(C(=O)c3ccccc3)[C@@](Cc3ccc(OC)cc3)(C(=O)OC)[C@@H]21" at or over 0.2 in terms of composite z-score? Condition met

Evaluate Cc1ccc(C(C)CC(O)C2C=CC3C(=O)N(C)C(=O)C3N2Nc2ccccc2)o1 (stereo not given) : composite z-score at minimum 0.2? Condition met

Item "C[N+](C)(C)CCCC[C@@H]1NC(=O)[C@H]2C[C@@H](C(=O)NCCCCCNC(=O)CS)[C@@H](c3cccc(OCCO)c3)N2C1=O" with composite z-score of 0.2 or above? Condition not met

Textbook exercise: given the entry "C=C(COC)/C(=C/C[C@H](OC(C)=O)c1ccccc1OCCO)c1cc(C(=O)OC)ccc1OC" , state whether its composite z-score is greater than or equal to 0.2. Condition not met

Please indicate if the recorded composite z-score for "CCOC(=O)C1=C[C@@H](C(C)(C)C)N(S(=O)(=O)c2ccc(C)cc2)[C@H]1c1ccc(C#N)cc1" meets or exceeds 0.2. Condition met

Would you say "C=CCN1Cc2ccccc2[C@H]2OC(c3ccc(OCCCO)cc3)=N[C@@]2(CCS(=O)(=O)c2ccccc2)C1=O" shows composite z-score at minimum 0.2? Condition met

In plain terms: is recorded composite z-score at least 0.2 for CC(C)(C)N1CC=CC23O[C@@H]4/C=C\CCCOC(=O)C4[C@H]2C(=O)N(CCCO)[C@@H]3C1=O (stereo not given in full) ? Condition met

Reported composite z-score at or above 0.2? "CCOC(=O)C[C@H]1[C@H](OC(=O)c2cc3ccccc3oc2=O)[C@@H](NC(=O)CC(C)C)c2cc(OCCCO)ccc2N1C(=O)Cc1ccc(OC)cc1" Condition not met

Exam item: decide whether the reported composite z-score for "COC(=O)C(CC#Cc1ccc2c(c1)[C@]1(C(=O)N2)[C@H](c2ccccc2OCCO)N2[C@H](c3ccccc3)[C@H](c3ccccc3)OC(=O)[C@H]2[C@@H]1C(=O)N1CCc2cc(OC)c(OC)cc2C1)C(=O)OC" is at least 0.2. Condition met

API: above_or_equal(metric=composite z-score, cutoff=0.2) for item Cc1ccccc1C(O)C1C=CC2C(=O)N(c3ccccc3)C(=O)C2N1Nc1ccccc1 (stereo not given) Condition not met
